EXPERIMENT: inhibitors of TNFa-induced NFkB p65 translocation, primary screen, imaging, HUVEC, MLSMR starter and 10KST1 sets (AID 438);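 also: compound added about 3h40 before a 20 min TNFalpha stimulation; signal is the nuclear over cytoplasmic p65 intensity ratio per well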
RECORDED CONDITIONS: HUVEC TNFa-induced p65 nuclear translocation; at 2 µM, active compounds read high, 0% TNFa-plus-vehicle, 100% no-TNFa wells
Activity calls are given as the source filed them.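 The calls were made as follows: active = inhibition above 20% together with a positive visual image hit; inconclusive = visual image hit but inhibition not above 20%; inactive = no visual image hit.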

COMPOUND	inhibition
CCN(CC)CCCn1c(C)cc2c(c1=O)C(c1cccc(Cl)c1)C(C#N)=C(N)O2 (centres undefined)	13.8% (inactive)
COc1ccccc1-c1nn2c(-c3ccc(C(C)(C)C)cc3)nnc2s1	-5.2% (inactive)
O=c1c2ccccc2[nH]c(=S)n1CCN1CCC(=C(c2ccc(F)cc2)c2ccc(F)cc2)CC1	-12.2% (inactive)
COc1cccc(-c2nn3c(-c4ccco4)nnc3s2)c1	-8.6% (inactive)
Cc1cccc(C)c1OCC(O)CNS(=O)(=O)c1ccccc1C(=O)N1CCOCC1 (centres undefined)	1.5% (inactive)
Cc1cc(C)c(C#N)c(SCC(=O)N2CCN(Cc3ccccc3)CC2)n1	-29% (inactive)
Cn1c2ccccc2c2nn(-c3ccccc3)c(=O)cc21	-5% (inactive)
CCOc1ccc(/C(O)=C2/C(=O)C(=O)N(c3nc(C)c(C)s3)C2c2ccco2)cc1 (centres undefined)	13.9% (inactive)
CC(C)Cc1ccc(C(C)C(=O)O)cc1 (centres undefined)	-0.8% (inactive)
CCCSC1=C(C#N)C(c2ccc(OC)cc2)C2=C(CC(C)(C)CC2=O)N1 (centres undefined)	-8.4% (inactive)
CC1(C)Cc2nc(NCCCO)c(C#N)cc2CO1	-6% (inactive)
O=C(C1CC1(c1ccccc1)c1ccccc1)N1CCOCC1 (centres undefined)	-6.3% (inactive)
CCOc1ccc(CC2CC(=O)NC2=O)cc1 (centres undefined)	2.8% (inactive)
CCOC(=O)CNC(=O)Nc1ccccc1C(=O)OC	-2.9% (inactive)
CCOc1ccc(CSC(CC(=O)O)C(=O)O)cc1 (centres undefined)	-12.9% (inactive)
CCOC(=O)c1c(C)[nH]sc1=S	-2.6% (inactive)
CCCCc1nc(NCCN2CCOCC2)c(C#N)c2c1COC(C)(C)C2	-7.6% (inactive)
Cc1c(C)c2cc(Cl)c(O)c(CN3CCCCC3)c2oc1=O	1.3% (inactive)
CCOC(=O)N1CCN(c2ncnc3c2[nH]c2ccc(OC)cc23)CC1	-6% (inactive)
CN1CCN(CCCCOc2ccc(F)cc2)CC1	-6.3% (inactive)
CCCOc1ccc(/C(O)=C2/C(=O)C(=O)N(CCN3CCOCC3)C2c2ccccc2)cc1 (centres undefined)	-10.5% (inactive)
COc1cc2nc(N3CCN(C(=O)c4ccco4)CC3)nc(N)c2cc1OC	3% (inactive)
O=C1CC(N(O)C2CC(=O)N(Cc3ccccc3)C2=O)C(=O)N1Cc1ccccc1 (centres undefined)	-16.2% (inactive)
CC(CN1c2ccccc2Sc2ccccc21)N(C)C (centres undefined)	2.6% (inactive)
